Target: C-C chemokine receptor type 6 (Homo sapiens)
Test: blockers of CCL20-driven beta-arrestin recruitment to CCR6 – cell-based, CHO-K1, luminescence, uHTS, primary screen (AID 493098);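 note: cells stimulated with CCL20 at 14 nM final; plate controls were DMSO with CCL20 for no effect and DMSO without agonist for full effect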
Conditions: CHO-K1 CCR6 PathHunter beta-arrestin, CCL20-stimulated, at 20 µM, stronger effect = higher value
In all, about 340,000 compounds went through this assay and about 1,700 (0.5%) were called active. This is one part of a sample in which actives are shown more often than they occur.
Here, each record is paired with measured inhibition data.

{"compound": "O=[N+]([O-])c1ccccc1S(=O)(=O)Nc1cccc2cccnc12", "measurement_unit": "%", "inhibition": 54.6}
{"compound": "COc1ccc(NC(=O)CC(NC(C)c2ccccc2)C(=O)O)cc1 (configuration not stated)", "measurement_unit": "%", "inhibition": 0.17}
{"compound": "Nc1ccccc1SC(C[N+](=O)[O-])c1ccccc1 (configuration not stated)", "measurement_unit": "%", "inhibition": 62.7}
{"compound": "CCN(CC)CCCN=Cc1c(O)n(-c2ccc(C)cc2)c(=O)c2ccccc12", "measurement_unit": "%", "inhibition": 6.64}
{"compound": "OCCC1CN(Cc2cccn2-c2nccs2)CCN1CCc1ccccc1 (configuration not stated)", "measurement_unit": "%", "inhibition": 3.25}
{"compound": "Cc1cccc(N2C(=O)CC(SC(N)=Nc3ccccc3)C2=O)c1 (configuration not stated)", "measurement_unit": "%", "inhibition": 5.48}
{"compound": "O=c1nc(N/N=C/c2ccco2)cn[nH]1", "measurement_unit": "%", "inhibition": 3.85}
{"compound": "CC(C)NC(=O)c1ccc(Sc2ccccc2)c([N+](=O)[O-])c1", "measurement_unit": "%", "inhibition": 10.2}
{"compound": "Cc1ccc(N=Cc2c(O)n(-c3nccs3)c(=O)c3ccccc23)c(C)c1", "measurement_unit": "%", "inhibition": 17.6}
{"compound": "CC1CCCC(NC(=O)CSc2nccn2C)C1C (configuration not stated)", "measurement_unit": "%", "inhibition": 7.72}
{"compound": "CCCCS(=O)c1snnc1C (configuration not stated)", "measurement_unit": "%", "inhibition": 4.33}
{"compound": "CCn1nc(C)c(CN2CCN(Cc3ccc(OC)c(C)c3C)C(CCO)C2)c1C (configuration not stated)", "measurement_unit": "%", "inhibition": 5.51}

----------
Biological target: C-C chemokine receptor type 6 (Homo sapiens)
Test: blockers of CCL20-driven beta-arrestin recruitment to CCR6 – cell-based, CHO-K1, luminescence, uHTS, primary screen (AID 493098);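 note: cells stimulated with CCL20 at 14 nM final; plate controls were DMSO with CCL20 for no effect and DMSO without agonist for full effect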
Details: CHO-K1 CCR6 PathHunter beta-arrestin, CCL20-stimulated, at 20 µM, stronger effect = higher value
About 1,700 (0.5%) of roughly 340,000 compounds were called active. This is one part of a sample in which actives are shown more often than they occur.
Here, each record is paired with measured inhibition data.

{"molecule": "Cc1cc(C(=O)N/N=C/c2cc([N+](=O)[O-])cc(C)c2O)n[nH]1", "inhibition, %": 34.7}
{"molecule": "O=[N+]([O-])c1cc(Br)c(O)c(/C=N/Nc2nc3ccccc3s2)c1", "inhibition, %": 54.2}
{"molecule": "COc1cc(/C=C2/SC(=S)N(Cc3ccccc3)C2=O)cc(OC)c1O", "inhibition, %": 52.9}
{"molecule": "COc1cccc(CNC(=O)c2cccnc2Sc2ccc(Cl)cc2)c1", "inhibition, %": -12.9}
{"molecule": "COc1cccc(/C=C2/SC(=S)N(CC(=O)NC3C=CS(=O)(=O)C3)C2=O)c1 (stereo unspecified)", "inhibition, %": -8.12}
{"molecule": "CC1CC2=C(CC1/C=N/NC(N)=S)C(C)(C)CCC2 (stereo unspecified)", "inhibition, %": 76.2}
{"molecule": "CN1C=CC=C/C1=C1\\SC(=S)N(Cc2ccccc2)C1=O", "inhibition, %": 25.3}
{"molecule": "Cc1cccc(NC(=O)CCN2CC(C)CC(C)C2)c1 (stereo unspecified)", "inhibition, %": 8.72}
{"molecule": "COC(=O)c1ccc(-c2noc(CN(Cc3ccccn3)CC3CCCO3)n2)cc1 (stereo unspecified)", "inhibition, %": 5.23}
{"molecule": "N#Cc1cccc(OC(=O)c2ccc3c(=O)n4c(nc3c2)CCC4)c1", "inhibition, %": 9.54}
{"molecule": "O=C(NNc1cc(Cl)ccc1Cl)c1cccnc1Cl", "inhibition, %": 13.2}
